pIC50 reference
molecular target: Human KDR (residues 790-1356) (Homo sapiens (Human), UniProt P35968); experiment: Human KDR kinase assay, HTRF KinEase (Example B-2); format: biochemical; details: protocol of Example B-2
Sequence (P35968 790-1356): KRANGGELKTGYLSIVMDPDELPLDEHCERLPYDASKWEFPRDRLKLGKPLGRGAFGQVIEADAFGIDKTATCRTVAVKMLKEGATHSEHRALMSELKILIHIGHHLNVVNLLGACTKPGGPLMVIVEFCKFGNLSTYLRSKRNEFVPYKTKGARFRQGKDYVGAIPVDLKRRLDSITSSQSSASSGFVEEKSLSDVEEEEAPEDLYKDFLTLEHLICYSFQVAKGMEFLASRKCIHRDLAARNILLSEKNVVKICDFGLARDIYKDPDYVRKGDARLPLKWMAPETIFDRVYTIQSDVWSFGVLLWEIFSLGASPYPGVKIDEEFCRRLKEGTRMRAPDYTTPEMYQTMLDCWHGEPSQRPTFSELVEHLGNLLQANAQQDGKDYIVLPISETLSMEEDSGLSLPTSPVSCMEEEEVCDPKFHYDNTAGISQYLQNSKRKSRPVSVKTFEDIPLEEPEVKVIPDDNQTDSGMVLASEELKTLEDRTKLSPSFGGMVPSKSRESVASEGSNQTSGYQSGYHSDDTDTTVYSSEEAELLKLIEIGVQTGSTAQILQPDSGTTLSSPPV
pIC50: −log10 of the molar value. Counter-ions that a name gives are not always drawn.
metric_name: pIC50

compound=COc1cc2nccc(Oc3ccc(NC(=O)c4cn(C(C)C)c(C)c(-c5ccc(F)cc5)c4=O)cc3F)c2nc1NS(C)(=O)=O obs_value="> 7.00"
compound=CCn1cc(C(=O)Nc2ccc(Oc3ccnc4cc(OC)c(OC)nc34)c(F)c2)c(=O)c(-c2ccc(F)cc2)c1CF obs_value="< 6.52"
compound=COc1cc2nccc(Oc3ccc(NC(=O)c4cn(C)c(CF)c(-c5ccc(F)cc5C)c4=O)cc3F)c2nc1OC obs_value="< 6.52"
compound=COc1cc2nccc(Oc3ccc(NC(=O)c4cnc(C)c(-c5ccc(F)cc5)c4O)cc3F)c2nc1C obs_value="> 7.00"
compound=CCOc1c(C(=O)Nc2ccc(Oc3ccnc4cc(OC)c(OC)nc34)c(F)c2)nnc(C)c1-c1ccc(F)cc1 obs_value="> 7.00"
compound="Cc1nc2c(Oc3ccc(NC(=O)c4cn(C(C)C)c(C)c(-c5ccc(F)cc5)c4=O)cc3)ccnc2cc1-c1cccnc1 [Compound 613, hydrochloride]" obs_value="< 6.52"
compound=COc1cnc2c(Oc3ccc(NC(=O)c4cc(C)nn(-c5ccc(F)cc5)c4=O)cc3)ccnc2c1 obs_value="< 6.52"
